assay: NCI Yeast Anticancer Drug Screen. Data for the bub3 strain (AID 167); conditions: S. cerevisiae bub3 mutant strain, at 50.0 µM (retest, dose inferred, filed as 5.0), active compounds read high
The panel holds about 79,000 compounds, 15% with a hit somewhere; the sample as a whole holds those more often.

| compound | units-symbol | growth inhibition |
| --- | --- | --- |
| O=[N+]([O-])CCc1ccco1 | % | -4 |
| CC(=O)OCC(C(N)=O)(c1ccccc1)c1ccccc1 | % | -1 |
| O=C1c2ccc3ccccc3c2CCC1[n+]1ccc2ccccc2c1 (stereo not drawn) | % | 63 |
| Cc1cc(-c2ccc(O)c(C)c2)ccc1O | % | 98 |
| CCCCCCCC/C=C\CCCCCCCC(=O)NCC[N+](C)(C)C | % | 100 |
| Cc1cc(Nc2ccc(O)c(CN3CCN(Cc4cc(Nc5cc(C)nc(N)n5)ccc4O)CC3)c2)nc(N)n1 | % | 95 |
| Cc1cc(C2c3ccccc3-c3ccccc32)cc(C)c1O | % | 8 |
| O=C1c2ccccc2S(=O)(=O)CC1Br (stereo not drawn) | % | 89 |

* * *

Catalogue of growth inhibition values
experiment: NCI Yeast Anticancer Drug Screen. Data for the sgs1 mgt1 strain (AID 161);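 note: 0% = growth of cultures given vehicle only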; conditions: S. cerevisiae sgs1 mgt1 strain, at 5.0 µM (retest, dose inferred, filed as 0.5), active compounds read high
This is part of a sample that, as a whole, favours compounds with a hit. Of some 79,000 tested, about 15% had one in any assay. Activity calls are given as the source filed them. Rule as the data show it: active = growth inhibition above about 70%; inactive = the rest.

| compound | growth inhibition |
| --- | --- |
| Clc1nnc(Cl)s1 | 2% (inactive) |
| CCCCCCCCCCCCCCNC(=O)CCC(NC(=O)c1ccc(N(C)Cc2cnc3nc(N)nc(N)c3n2)cc1)C(=O)NCCCCCCCCCCCCCC (configuration not stated) | 19% (inactive) |
| O=C(OCc1ccccc1)N(CCCCN(CCCNCc1ccccc1)C(=O)OCc1ccccc1)CCCNCc1ccccc1 | 10% (inactive) |
| O=C(O)c1c(Cl)c(Cl)c(Cl)c(Cl)c1-c1c2ccc(=O)cc-2oc2cc(O)ccc12 | 61% (inactive) |
| COc1ccc(CN2CCCN(Cc3ccc(OC)cc3OC)C2c2cc(Br)ccc2O)c(OC)c1 | 27% (inactive) |
| COc1nc(N)c(N=O)c(OCc2ccccc2)n1 | 62% (inactive) |
| Nc1ccc(C(=O)N/N=C\c2cccc3ccccc23)cc1 | 0% (inactive) |
| COc1ccc(C=Nc2ccccc2O)cc1 | 11% (inactive) |
| O=C1OC(c2ccccc2)(c2ccc(-c3ccc(O)cc3)cc2)c2ccccc21 (configuration not stated) | -1% (inactive) |
| Oc1ccc(Br)cc1C=Nc1c(NC2CCCCC2)oc2ccc(Br)cc12 | 11% (inactive) |
| CC(CN(C)C)C(/C=C/c1ccc(F)cc1)=N\Nc1ccccc1 (configuration not stated) | -15% (inactive) |
| COc1ccc(/C=C/C(C(=O)O)C(=O)O)cc1 | 6% (inactive) |
| CC(C)=CCc1c2c(c3occ(-c4ccc(O)c(O)c4)c(=O)c3c1O)C=CC(C)(C)O2 | 9% (inactive) |
| Nc1ccc(S(=O)(=O)NCc2nccs2)cc1 | 2% (inactive) |
| O=C1CSC(=S)N1/N=C/c1ccc(Cl)c([N+](=O)[O-])c1 | 2% (inactive) |
| CCOC(=O)c1cn(CC)c2cc(-n3cccc3)ccc2c1=O | -2% (inactive) |
| C[n+]1c(-c2ccc(/C=N\NC(=O)c3cccc(C(=O)N/N=C/c4ccc(-c5cn6ccccc6[n+]5C)cc4)c3)cc2)cn2ccccc21 | 0% (inactive) |
| S=C(Nc1ccc(Cl)c(Cl)c1)SC1CCCCC1 | 11% (inactive) |
| Cc1ccc(C(=O)C(CCC#N)(CCC#N)CCC#N)cc1 | -1% (inactive) |
| CCCCCCCCC1(C(=O)OCCN(CC)CC)CCCCC1 | 36% (inactive) |
| COc1ccc(/C=C\Cc2cc3c(cc2OCCO)OCO3)cc1 | 7% (inactive) |
| CCC(C)(O)Cc1cnccn1 (configuration not stated) | 2% (inactive) |
| CCOc1ccc2c(c1)CCC1C2CCC2(C)CC(O)CC12 (configuration not stated) | 22% (inactive) |
| Clc1ccc(CNc2ccc(Br)cc2)cc1 | 4% (inactive) |
| CN=C(NC1CCCCC1)c1ccc(NC(=O)c2ccc(C(=O)Nc3ccc(C(=NC)NC4CCCCC4)cc3)cc2)cc1 | 6% (inactive) |
| COc1ccc(C2CC(c3sc(Nc4ccc(C)cc4)nc3C)=NN2)cc1 (configuration not stated) | -2% (inactive) |
| Cc1ncn(-c2ccccc2O)c1C | -7% (inactive) |
| O=C1CCC(c2ccccc2)=NN1c1nc2ccccc2s1 | 0% (inactive) |
| O=C(CN1CCCCC1)CC(O)(C(F)(F)F)C(F)(F)F | 10% (inactive) |
| Cc1noc(NS(=O)(=O)c2ccc(N=Nc3cc(N=Nc4ccc(S(=O)(=O)Nc5onc(C)c5C)cc4)c4c(NC(=O)C(Cl)Cl)cccc4c3O)cc2)c1C (tested in a mixture with another compound) | 95% (active) |
| O=C1CCCC1CN1CCOCC1 (configuration not stated) | -32% (inactive) |
| S=c1nc(C(c2ccccc2)c2ccccc2)[nH][nH]1 | 10% (inactive) |
